biological target: sphingosine-1-phosphate receptor 1 (S1P1) (Homo sapiens, UniProt P21453); construct: hS1P1 stably expressed in HEK-293 cells (membrane pellets); assay: […]-GTPγS binding assay (SPC-stimulated) in membranes of HEK-293 cells stably expressing hS1P1
Sequence (P21453 whole entry): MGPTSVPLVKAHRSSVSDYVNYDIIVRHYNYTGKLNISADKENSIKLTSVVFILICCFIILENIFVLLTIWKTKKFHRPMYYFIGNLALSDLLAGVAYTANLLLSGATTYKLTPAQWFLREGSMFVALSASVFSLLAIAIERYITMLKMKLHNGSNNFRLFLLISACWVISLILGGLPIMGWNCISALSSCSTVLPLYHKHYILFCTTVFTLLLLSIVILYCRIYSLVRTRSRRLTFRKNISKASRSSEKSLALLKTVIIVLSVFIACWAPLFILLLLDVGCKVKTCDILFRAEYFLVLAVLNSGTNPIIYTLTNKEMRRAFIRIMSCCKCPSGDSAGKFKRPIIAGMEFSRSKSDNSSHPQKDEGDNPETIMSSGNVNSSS
REPORTED_METRIC: IC50 (µM)
Field format: number, assumed µM, no unit text.

Give IC50 (sphingosine-1-phosphate receptor 1 (S1P1) (Homo sapiens, UniProt P21453)) of the following compound: COc1ccccc1N1CCN(c2nc(NC(=O)C(C)(C)C)c(C(=O)c3ccccc3)s2)CC1 0.0792

* * *

target: 2C19 (Homo sapiens); test: biochemical; settings: read-out: CYP450 IC50
Sequence (P33261 whole entry): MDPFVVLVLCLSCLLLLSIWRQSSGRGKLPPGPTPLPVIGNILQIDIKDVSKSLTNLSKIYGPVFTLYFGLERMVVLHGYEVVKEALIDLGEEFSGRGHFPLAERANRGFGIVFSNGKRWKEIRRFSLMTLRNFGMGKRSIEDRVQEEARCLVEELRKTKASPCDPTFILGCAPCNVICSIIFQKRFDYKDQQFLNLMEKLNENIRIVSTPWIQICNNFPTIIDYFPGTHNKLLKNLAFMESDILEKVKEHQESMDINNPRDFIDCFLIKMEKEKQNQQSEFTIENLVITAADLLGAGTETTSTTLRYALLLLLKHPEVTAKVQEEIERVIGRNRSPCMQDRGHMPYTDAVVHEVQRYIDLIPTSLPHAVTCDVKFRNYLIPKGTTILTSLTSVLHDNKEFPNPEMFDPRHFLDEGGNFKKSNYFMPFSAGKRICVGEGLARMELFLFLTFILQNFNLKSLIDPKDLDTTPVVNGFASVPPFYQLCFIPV
pIC50: −log10 of the molar value.
REPORTED_METRIC: pIC50

Checklist item: pIC50 tested on 2C19 (Homo sapiens), entry COc1ccccc1N1CCN(c2nc(NC(=O)C(C)(C)C)c(C(=O)c3ccccc3)s2)CC1 , value? < 5.00
